biological target: Estrogen receptor (Rattus norvegicus) (UniProt P06211+Q62986); test: Binding affinity to estrogen receptor; type: protein assay
Please go through the items and note down their relative binding affinity (RBA).

Please review the entries below; each comes with its answer.
### Prompt Reported relative binding affinity (RBA), compound CC[C@@](C)(c1ccc(O)cc1)[C@H](CCCCN)c1ccc(O)cc1 (relative stereo) : ____
### Response 2

### Prompt And the next one, CC[C@@](C)(c1ccc(O)cc1)[C@H](CCCC(=O)NCCO)c1ccc(O)cc1 ?
### Response 0.1

### Prompt And the next one, CC[C@@](C)(c1ccc(O)cc1)[C@H](CCCCOCCOCCO)c1ccc(O)cc1 ?
### Response 1

### Prompt And the next one, CCSCCCCC(c1ccc(O)cc1)C(C)(CC)c1ccc(O)cc1 (stereo not drawn) ?
### Response 0.2

### Prompt And the next one, CC[C@@](C)(c1ccc(O)cc1)[C@H](CCCC(=O)OC)c1ccc(O)cc1 ?
### Response 0.2

I have 6 compounds here; please give me relative binding affinity (RBA) for each one.
1. CC[C@@](C)(c1ccc(O)cc1)[C@H](CCCCOS(C)(=O)=O)c1ccc(O)cc1
2. CC[C@@](C)(c1ccc(O)cc1)[C@H](CCCCSCCO)c1ccc(O)cc1 (relative stereo)
3. CC[C@@](C)(c1ccc(O)cc1)[C@H](CCCCO)c1ccc(O)cc1 (relative stereo)
4. CC[C@@](C)(c1ccc(O)cc1)[C@H](CCCC(=O)N(CCO)CCO)c1ccc(O)cc1
5. CC[C@@](C)(c1ccc(O)cc1)[C@H](CCCCN(CCO)CCO)c1ccc(O)cc1 (relative stereo)
6. CC[C@@](C)(c1ccc(O)cc1)[C@H](CCCCC=O)c1ccc(O)cc1

### Response
[0.3, 0.4, 1.5, 0.2, 0.9, 1]

I have 5 compounds here; please give me relative binding affinity (RBA) for each one.
1. CC[C@@](C)(c1ccc(O)cc1)[C@H](CCCCOCCCl)c1ccc(O)cc1 (relative stereo)
2. CC[C@@](C)(c1ccc(O)cc1)[C@H](CCCCOCCO)c1ccc(O)cc1
3. CC[C@@](C)(c1ccc(O)cc1)[C@H](CCCCI)c1ccc(O)cc1 (relative stereo)
4. CC[C@@](C)(c1ccc(O)cc1)[C@H](CCCCNC(=O)N(CCCl)N=O)c1ccc(O)cc1
5. CC[C@@](C)(c1ccc(O)cc1)[C@H](CCCCOCCOCCOCCCl)c1ccc(O)cc1 (relative stereo)

### Response
[0.3, 1, 0.2, 1, 0.5]

I have 2 compounds here; please give me relative binding affinity (RBA) for each one.
1. CCCC[C@H](c1ccc(O)cc1)[C@@](C)(CC)c1ccc(O)cc1 (relative stereo)
2. CC[C@@](C)(c1ccc(O)cc1)[C@H](CCCCOCCOCCOCCO)c1ccc(O)cc1

### Response
[1, 1]

All figures here come from ChEMBL document CHEMBL1124525.
